Source of measurements: PubChem BioAssay

- assayComment: inhibitors of the yeast RAM network, pilot screen, dse1pr::URA3 reporter, 5-FOA selection (AID 869);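 also: 0% = DMSO wells with no growth and 100% = 10 µM 1-NA-PP1 with full growth; RAM network block rescues cells from 5-FOA so hits raise OD615 growth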
- experimentalConditions: S. cerevisiae dse1pr::URA3 5-FOA growth, OD615, 2 d; at 10 µM; stronger effect = higher value; strain carries analog-sensitive mutant Cbk1 kinase
readoutLabel: inhibition (%)
# unit: % | format: bare number

Ask: Read off the recorded inhibition for COC(=O)CN1C(=O)C(O)(CC(=O)c2ccc(Br)cc2)c2ccccc21 (centres undefined)
Reply: 0.785

Ask: Read off the recorded inhibition for CCCCCOC(=O)Cn1c(=O)oc2ccccc21
Reply: 0.385

Ask: Read off the recorded inhibition for COc1ccc(NC2c3ccccc3C(=O)N2Cc2ccco2)cc1OC (centres undefined)
Reply: 0.985

Ask: Read off the recorded inhibition for Cc1ccc(C(C)C)c(OCC(=O)N2CCOCC2)c1
Reply: 1.69

Ask: Read off the recorded inhibition for CCc1cc2c(=O)c(-c3nc4ccccc4[nH]3)coc2c(CN2CCCC(C)C2)c1O (centres undefined)
Reply: -0.17

Ask: Read off the recorded inhibition for O=S(=O)(NCc1ccc2c(c1)OCO2)c1cnc[nH]1
Reply: 0.885
